Could you please report measured pKd for the items listed next?
- TESTED ON: purified extracellular domain of PSMA (prostate-specific membrane antigen), residues 44–750 (human, UniProt Q04609)
- Sequence (Q04609 44-750): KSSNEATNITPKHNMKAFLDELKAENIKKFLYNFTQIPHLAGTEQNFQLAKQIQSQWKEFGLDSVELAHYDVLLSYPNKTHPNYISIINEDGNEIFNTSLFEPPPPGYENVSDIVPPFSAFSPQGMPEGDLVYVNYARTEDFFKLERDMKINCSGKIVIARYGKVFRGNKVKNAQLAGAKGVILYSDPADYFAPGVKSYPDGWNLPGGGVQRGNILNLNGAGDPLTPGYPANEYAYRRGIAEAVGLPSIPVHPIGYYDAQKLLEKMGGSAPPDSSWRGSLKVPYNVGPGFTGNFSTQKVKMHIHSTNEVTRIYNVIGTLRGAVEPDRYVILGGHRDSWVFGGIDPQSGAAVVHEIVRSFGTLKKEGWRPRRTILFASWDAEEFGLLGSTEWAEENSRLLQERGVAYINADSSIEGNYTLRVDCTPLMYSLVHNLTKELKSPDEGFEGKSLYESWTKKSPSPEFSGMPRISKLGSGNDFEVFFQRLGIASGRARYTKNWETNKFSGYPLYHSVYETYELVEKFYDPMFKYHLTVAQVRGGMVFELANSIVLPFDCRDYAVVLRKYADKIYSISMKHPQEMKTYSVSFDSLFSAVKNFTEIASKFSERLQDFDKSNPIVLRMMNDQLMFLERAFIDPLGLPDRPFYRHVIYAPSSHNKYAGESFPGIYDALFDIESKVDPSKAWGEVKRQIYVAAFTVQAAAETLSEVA
- PROTOCOL TEXT: SPR; ProteOn XPR36 chip; each NB (0.2 μg) immobilised by amine coupling (sulfo-NHS/EDC, 10 mM sodium acetate pH 5.0); soluble PSMA flowed at 25 μL/min (25-3200 pM for NB7; 2.94-47.00 nM for NB8, NB13, NB37); dissociation in PBST (0.005% Tween); BSA surface subtracted; Langmuir 1:1 kinetic model; 25 °C
- CONDITION INFO: both partners purified
// returns pKd (minus log10 of molar concentration), number only

Fill in reported pKd for this entry: NB37 (VHH) VHH: QVQLQESGGGSVEAGGSLRLSCARSGWPYSTYSMNWFRQAPGKEREAVAGISSTMSGIIFAESKAGQFTISQDNAKNTVYLQMNNLKPEDTAIYYCAARRDYSLSSSSDDFDYWGQGTQVTVSS
8.47

Fill in reported pKd for this entry: NB8 (VHH) VHH: QVQLQESGGGSVQAGGSLRLSCARSGWPYSTYSMNWFRQAPGKEREAVAGISSTMSGIIFAESKAGQFTISQDNAKNTVYLQMNNLKPEDTAIYYCAARRDYSLSSSSDDFDYWGQGTQVTVSS
8.22

Fill in reported pKd for this entry: NB13 (VHH) VHH: QVQLQESGGGSVQTGGSLRLSCAASGYTASFSWIGYFRQAPGKEREGVAVINVGVGSTYYADSVKGRFTISRDNTENTISLEMNSLKPEDTGLYYCAGSLRWSRPPNPISEDAYNYWGQGTQVTVSS
9.22

Fill in reported pKd for this entry: NB7 (VHH) VHH: QVQLQESGGGSVQAGGSLRLSCTAPGYTDSNYYMSWFRQAPGKEREWVAGVNTGRGSTSYADSVKGRFTISQDNAKNTMFLQMNSLKPEDTAIYYCAVAACHFCDSLPKTQDEYILWGQGTQVTVSS
10.26

The measured values listed here are drawn from paper PMC7383930.
